These entries and their values trace back to paper PMC7456963.

Tested on: P. falciparum NF54 erythrocytic stages
Assay: Activity against Plasmodium falciparum (3H-hypoxanthine incorporation)
Format: cell-based
Conditions: read-out: IC50 P. falciparum; NF54 drug sensitive strain, erythrocytic stages, 72 h; mean ± absolute deviation
outcome-measure: IC50 (µM)
Numeric only. Scale: µM

Input COc1cc(-c2oc3cc(O)cc(O)c3c(=O)c2O)ccc1O [Compound 11, Isorhamnetin] , output reported IC50.
21.6

###

Quick list: pIC50 per entry.
System: P. falciparum NF54 erythrocytic stages
Assay: Activity against Plasmodium falciparum (3H-hypoxanthine incorporation)
Format: cell-based
Details: Plasmodium falciparum, NF54, 72 h, read-out: IC50 P. falciparum, NF54 drug sensitive strain, erythrocytic stages, 72 h; mean ± absolute deviation
Formally, pIC50 is defined as -log10 of the concentration c, with c in mol/L.

COc1ccc(C[C@@H]2c3cc(OC)c(OC)cc3CCN2C)cc1O | 4.10

Input COc1ccc(CC2c3cc(OC)c(OC)cc3CCN2C)cc1OC (stereo not drawn) , output reported pIC50.
4.12

###

Assay: In vitro cytotoxicity with L-6 cells (resazurin)
Type: cell-based, rat
Conditions: rat; L6 cells, 70 h + 2 h resazurin; mean ± absolute deviation
Quick list: IC50 at 70 h per entry.
Numeric only. Scale: µM

COc1cc(-c2oc3cc(O)cc(O)c3c(=O)c2O)ccc1O [Compound 11, Isorhamnetin] | 130
COc1ccc(C[C@@H]2c3cc(OC)c(OC)cc3CCN2C)cc1O [Compound 8, Laudanine] | 292
COc1ccc(CC2c3cc(OC)c(OC)cc3CCN2C)cc1OC (stereo not drawn) [Compound 9, Laudanosine] | 280

Input COc1cc(C(=O)O)ccc1O [Compound 7, 3-Methoxy-4-hydroxybenzoic acid] , output reported IC50 at 70 h.
595

Input COc1cc(O)c2c(=O)c(OC)c(-c3ccc(OC)c(OC)c3)oc2c1 [Compound 3, Retusin] , output reported IC50 at 70 h.
215

Input COc1cc([C@@H]2c3cc4c(cc3[C@H](O)[C@H]3COC(=O)[C@H]23)OCO4)cc(OC)c1OC [Podophyllotoxin, reference compound] , output reported IC50 at 70 h.
0.03

###

Quick list: IC50 at 96 h per entry.
Assay: Cytotoxicity to macrophages determined in parallel to the intramacrophage assay
Format: cell-based
Settings: CDI, surviving, uninfected mouse peritoneal macrophages
Numeric only. Scale: µM

Worked cases, answers included:
COc1cc(O)c2c(=O)c(OC)c(-c3ccc(O)c(O)c3)oc2c1 | 102
COc1cc(O)c2c(=O)c(OC)c(-c3ccc(OC)c(OC)c3)oc2c1 | 173
COc1ccc(-c2oc3cc(O)cc(O)c3c(=O)c2OC)cc1OC | 154
COc1cc(O)c2c(=O)c(OC)c(-c3ccc(OC)c(O)c3)oc2c1 | 128
O=C1C[C@@H](c2ccc(O)cc2)Oc2cc(O)cc(O)c21 | 333

Input O=c1c(O)c(-c2ccc(O)cc2)oc2cc(O)cc(O)c12 , output reported IC50 at 96 h.
151

Input CC(=O)O[C@H]1[C@H]2c3c(ccc4c(=O)cc(-c5ccccc5)oc34)O[C@H]2OC1(C)C [Compound 12, (-)-(3′′S,4′′R,5′′S)-Pseudosemiglabrin] , output reported IC50 at 96 h.
145

###

Experiment: In vitro cytotoxicity with L-6 cells (resazurin)
Format: cell-based, rat
Conditions: rat, L-6 cells (rat skeletal myoblasts); L6 cells, 70 h + 2 h resazurin; mean ± absolute deviation
outcome-measure: IC50 at 70 h (µM)
Numeric only. Scale: µM

Input O=C1C[C@@H](c2ccc(O)cc2)Oc2cc(O)cc(O)c21 [Compound 4, Naringenin] , output reported IC50 at 70 h.
233
